Target Under Test: chicken Estrogen Receptor (ERa), ESR1 (gene 396099)
Experiment Notes: ATG_chERa_XSP2: Attagene TRANS-FACTORIAL Multi-Species (XSP2) HepG2 Assay for chicken Estrogen Receptor (ERa) (AID 2283817);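 further: actives raise reporter signal above DMSO so AC50 reflects ER activation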
Records with an inconclusive call do not appear. Active and inactive are the calls of the source. How the source made its calls: active means hit-call score of the fitted dose curve at least 0.9, where 1 is the maximum; inconclusive means response in the unintended direction; inactive means score below 0.9.
Outcome Measure: AC50

Illustrative cases are given below, each with its answer.
CC(=O)C=C(C)C :: inactive
CC1(C)CCC(Cc2ccc(Cl)cc2)C1(O)Cn1cncn1 (stereo not drawn) :: 3.58 µM (active)
C[C@]12CCC(=O)C[C@@H]1CC[C@@H]1[C@@H]2CC[C@]2(C)[C@@H](O)CC[C@@H]12 :: inactive
Oc1c(I)cc(I)cc1I :: 2.58 µM (active)
O=C1C2(Cl)C3(Cl)C4(Cl)C(Cl)(Cl)C5(Cl)C3(Cl)C1(Cl)C5(Cl)C24Cl (stereo not drawn) :: 1.33 µM (active)

Request: For CC(C)(C)c1cc(O)ccc1O , what is its reported AC50?
Result: 24.6 µM (active)

Request: For COP(=O)(OC)O/C(=C\Cl)c1cc(Cl)c(Cl)cc1Cl , what is its reported AC50?
Result: 4.9 µM (active)

Request: For CC(C)(C)CC(C)(C)c1ccc(O)cc1 , what is its reported AC50?
Result: 4.49 µM (active)

###

Experiment Notes: CCTE_Shafer_MEA_dev_firing_rate_mean: CCTE's Neural Network Formation Assay for Mean Firing Rate, Shafer Lab (AID 2284031);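 further: AUC of well mean spike rate recorded on DIV 5 7 9 and 12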
Active and inactive are the calls of the source. Rule for the calls: active = hit-call score of the fitted dose curve at least 0.9, where 1 is the maximum; inactive = score below 0.9.
Use one of these outcomes when replying: active, inactive

As a guide, the following entries are already answered.
CC(=O)[O][Hg][c]1ccccc1 :: active
O=C(O)C(F)(F)C(F)(F)C(F)(F)C(F)(F)C(F)(F)C(F)(F)F :: inactive
O=C(O)C(F)(F)C(F)(F)C(F)(F)C(F)(F)C(F)(F)C(F)(F)C(F)(F)C(F)(F)C(F)(F)C(F)(F)F :: inactive

Request: State the result this test recorded for C=C(C)C(=O)[O][Sn]([CH2]CCC)([CH2]CCC)[CH2]CCC .
Result: active

Request: State the result this test recorded for ClC1(Cl)C2(Cl)C3(Cl)C4(Cl)C(Cl)(Cl)C5(Cl)C3(Cl)C1(Cl)C5(Cl)C24Cl (configuration not stated) .
Result: inactive

Request: State the result this test recorded for Cn1sc(Cl)cc1=O .
Result: active

Request: State the result this test recorded for O=C1C2(Cl)C3(Cl)C4(Cl)C(Cl)(Cl)C5(Cl)C3(Cl)C1(Cl)C5(Cl)C24Cl (configuration not stated) .
Result: active

###

Read-out: Human Leukocyte Antigen - DR isotype (HLADR), HLA-DRA (gene 3122)
Experiment Notes: BSK_CASM3C_HLADR: BioMAP Diversity Plus: CASM3C Assay for Human Leukocyte Antigen - DR isotype (HLADR) Biomarker Activity (AID 2283043);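 further: cell-surface HLA-DR protein level quantified by ELISA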
Experimental Setup: primary human coronary artery smooth muscle cells; actives raise or lower the signal
Calls of active or inactive are those of the source. How the source made its calls: active means hit-call score of the fitted dose curve at least 0.9, where 1 is the maximum; inactive means score below 0.9.
Outcome Measure: outcome

CC12CC1(C)C(=O)N(c1cc(Cl)cc(Cl)c1)C2=O (stereo not drawn) :: inactive
NC(=S)Nc1ccccc1 :: inactive
OCc1ccco1 :: inactive

###

Experiment Notes: ATG_Oct_MLP_CIS: Attagene CIS-FACTORIAL HepG2 Assay for human Octamer-Binding Transcription Factor (Oct) (AID 2282993)
Experimental Setup: HepG2 Attagene cis-factorial Oct reporter, mRNA; actives raise or lower the signal
Activity calls are given as the source filed them. How the source made its calls: active means hit-call score of the fitted dose curve at least 0.9, where 1 is the maximum; inactive means score below 0.9.
Use one of these outcomes when replying: Y = active, N = inactive

As a guide, the following entries are already answered.
C=C(C)C(=O)[O][Sn]([CH2]CCC)([CH2]CCC)[CH2]CCC :: Y
Clc1ccc(C2(Cn3cncn3)CC(Br)CO2)c(Cl)c1 (stereo unspecified) :: N
O=C(NCO)NCO :: N
N#CCCO :: N
CC1(C)CCC(Cc2ccc(Cl)cc2)C1(O)Cn1cncn1 (stereo unspecified) :: N

Request: State the result this test recorded for CCOP(=O)(CN(CCO)CCO)OCC .
Result: N

Request: State the result this test recorded for O=Cc1cccc(Oc2ccccc2)c1 .
Result: N

Request: State the result this test recorded for COP(=O)(OC)OC .
Result: N
